- runDescription: NFAT Signaling Pathway (AID 444);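 also: carbachol stimulus at about its EC50 of 1 µM final; % is scaled to controls: 0 for no effect and ±100 for the full control effect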
- reportedConditions: Jurkat NFAT-bla M1, carbachol, beta-lactamase ratio, 5 h; at 7.69 µM (top of the series) unless noted
Records with an inconclusive call do not appear.
observable: activity change, negative = inhibition (%)
Kindly answer with a numeric value in %, unit omitted.

Request: So what's the measured activity change, negative = inhibition for this one? O=S(=O)(O)n1ccnc1 (tested in a mixture with another compound)
Response: 6.55

Request: Another compound to check: O=C(O)[C@@H](Br)[C@@H](Br)c1ccccc1[N+](=O)[O-]
Response: 10.2

Request: # iterate: CC(=O)Nc1nc(NC(C)=O)c2[nH]c(CO)nc2n1
Response: 1.8

Request: Please give the result for O=c1cc(CF)[nH]c(=S)[nH]1 too.
Response: 5.97

Request: Moving on to O=C(O)CCn1cnc2c(=S)nc[nH]c21
Response: 1.47

Request: Also O=[N+]([O-])c1nccn1C[C@H](O)CN1CCCCC1 , if possible.
Response: 0.912

Request: Field entry: C/C(=C\c1ccc(Cl)cc1)C(C)(C)C(=O)O
Response: -8.85

Request: What about Cc1cc2sc(C)[n+](CCCOS(=O)(=O)O)c2cc1C ?
Response: 7.47

Request: How about C[N+](C)(C)CC(=O)N/N=C\c1c(O)ccc2ccccc12 ?
Response: -5.58

Request: Next entry: CCO[P@]1(=O)OC[C@@H]2O[C@H](n3cnc4c(N)ncnc43)[C@H](O)[C@@H]2O1
Response: 4.19

Request: Same question for C[N+]1(CCN=C=NC2CCCCC2)CCOCC1 please.
Response: -4.19
